This listing pairs binders with measured kon.
- measurement.target: T1, hPRLR.mmh (soluble monomeric human PRLR) (human)
- T1 construct: soluble monomeric PRLR protein
- T1 chain: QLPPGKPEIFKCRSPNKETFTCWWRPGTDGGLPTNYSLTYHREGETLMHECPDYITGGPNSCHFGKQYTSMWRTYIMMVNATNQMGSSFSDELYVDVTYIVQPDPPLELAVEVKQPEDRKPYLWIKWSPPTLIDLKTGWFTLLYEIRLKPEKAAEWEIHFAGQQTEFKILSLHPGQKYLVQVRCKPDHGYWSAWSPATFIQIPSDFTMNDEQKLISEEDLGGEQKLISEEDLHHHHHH
- test.description: SPR (Biacore), antibody capture, 37 C
measurement.label: kon (M⁻¹ s⁻¹)

binder="H1H6959N2 (antibody, human IgG1, V domains shown, also called H2M6959N2) VH: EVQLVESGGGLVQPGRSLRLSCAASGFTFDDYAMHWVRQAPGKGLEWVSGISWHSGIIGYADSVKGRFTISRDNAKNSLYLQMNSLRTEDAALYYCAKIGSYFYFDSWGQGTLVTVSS VL: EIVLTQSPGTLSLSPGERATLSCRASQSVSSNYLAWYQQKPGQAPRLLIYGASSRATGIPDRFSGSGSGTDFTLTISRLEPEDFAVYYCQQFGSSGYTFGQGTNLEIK" measurement_label=kon value_observed=40600
binder="H1H6797P (antibody, human IgG1, V domains shown, human IgG1 Fc (H1H)) VH: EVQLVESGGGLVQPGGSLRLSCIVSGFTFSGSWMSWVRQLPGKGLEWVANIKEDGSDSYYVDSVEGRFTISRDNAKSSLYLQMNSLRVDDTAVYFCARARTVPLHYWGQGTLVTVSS VL: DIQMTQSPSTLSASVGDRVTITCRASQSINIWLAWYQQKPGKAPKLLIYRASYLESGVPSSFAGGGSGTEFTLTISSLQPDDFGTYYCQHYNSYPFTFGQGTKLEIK" measurement_label=kon value_observed=1.29e+06
